So I've got a bunch of molecules here, and I need their growth values.
- Test system: DU-145 prostate
- protocol.summary: NCI-60 one-dose screen, 48 h (100 = growth as untreated, 0 = no growth, -100 = all killed)
- condition.set: 10 µM unless noted
- Method: Cells are grown in 96 well plates and exposed to the test compound for 48 hours. Compounds are tested at a single concentration, which is 10^-5 M for most compounds. The reported endpoint is percent growth (GI% or GIPRCNT), where numbers from 0 - 100% represent growth inhibition, and numbers from -100% - 0 represent cell death. For example, a value of 40 represents 60% growth inhibition. A value of 0 means no net growth occurred over the course of the experiment. […]
About 83,000 compounds went through this panel and 20% of them were active in at least one assay; those are over-represented in the sample as a whole.
Answers are plain numbers, in %.

CCN(CC)S(=O)(=O)c1ccc(NC(=O)CSc2nnc(C)n2-c2ccccc2)cc1	120
O=C1c2ccccc2NC(n2sc3ccccc3c2=O)N1c1ccccc1 (stereo unspecified)	107
COC(=O)/C=C1\S/C(=N\Nc2ccc([N+](=O)[O-])cc2[N+](=O)[O-])N(C2CCCCC2)C1=O	44.2
CCOC(=O)Nc1ccc(C(=O)/C=C/c2ccccc2)cc1	86.4
COc1ccc2c(c1)nc(NNC(=O)c1cnccn1)c1cccn12	31.1

For the next question, use this molecule.
Given the molecule COc1ccc(C2C(C#N)=C(N)Oc3c2sc2c(C)cccc32)cc1 (stereo unspecified) , what is its reported growth?
22.4
